Hi there, I'd appreciate the recorded total protein half-life in vivo for every entry that follows.
Test: total protein half-life in vivo (active degradation + dilution); higher = more stable protein
Settings: wild type E. coli NCM3722; growth: C-lim chemostat; doubling time 6 h
Return type: number; implicit unit h.

total protein half-life in vivo recorded for this sequence, MSVIKMTDLDLAGKRVFIRADLNVPVKDGKVTSDARIRASLPTIELALKQGAKVMVTSHLGRPTEGEYNEEFSLLPVVNYLKDKLSNPVRLVKDYLDGVDVAEGELVVLENVRFNKGEKKDDETLSKKYAALCDVFVMDAFGTAHRAQASTHGIGKFADVACAGPLLAAELDALGKALKEPARPMVAIVGGSKVSTKLTVLDSLSKIADQLIVGGGIANTFIAAQGHDVGKSLYEADLVDEAKRLLTTCNIPVPSDVRVATEFSETAPATLKSVNDVKADEQILDIGDASAQELAEILKNAKTILWNGPVGVFEFPNFRKGTEIVANAIADSEAFSIAGGGDTLAAIDLFGIADKISYISTGGGAFLEFVEGKVLPAVAMLEERAKK [P0A799] , is 6.24

total protein half-life in vivo recorded for this sequence, MNAEKSPVNHNVDHEEIAKFEAVASRWWDLEGEFKPLHRINPLRLGYIAERAGGLFGKKVLDVGCGGGILAESMAREGATVTGLDMGFEPLQVAKLHALESGIQVDYVQETVEEHAAKHAGQYDVVTCMEMLEHVPDPQSVVRACAQLVKPGGDVFFSTLNRNGKSWLMAVVGAEYILRMVPKGTHDVKKFIKPAELLGWVDQTSLKERHITGLHYNPITNTFKLGPGVDVNYMLHTQNK , is 4.96

total protein half-life in vivo recorded for this sequence, MVLMIVSGRSGSGKSVALRALEDMGFYCVDNLPVVLLPDLARTLADREISAAVSIDVRNMPESPEIFEQAMSNLPDAFSPQLLFLDADRNTLIRRYSDTRRLHPLSSKNLSLESAIDKESDLLEPLRSRADLIVDTSEMSVHELAEMLRTRLLGKRERELTMVFESFGFKHGIPIDADYVFDVRFLPNPHWDPKLRPMTGLDKPVAAFLDRHTEVHNFIYQTRSYLELWLPMLETNNRSYLTVAIGCTGGKHRSVYIAEQLADYFRSRGKNVQSRHRTLEKRKP [P0A894] , is 6.62

total protein half-life in vivo recorded for this sequence, MYERYAGLIFDMDGTILDTEPTHRKAWREVLGHYGLQYDIQAMIALNGSPTWRIAQAIIELNQADLDPHALAREKTEAVRSMLLDSVEPLPLVDVVKSWHGRRPMAVGTGSESAIAEALLAHLGLRHYFDAVVAADHVKHHKPAPDTFLLCAQRMGVQPTQCVVFEDADFGIQAARAAGMDAVDVRLL , is 4.33
